Target: FRMPD2_1, Q68DX3
Sequence (Q68DX3 770-861): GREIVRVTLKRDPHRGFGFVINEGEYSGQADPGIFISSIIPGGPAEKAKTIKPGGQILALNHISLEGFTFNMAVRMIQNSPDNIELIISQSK
Assay: holdup assay
Parameters: key: below the threshold = too weak to quantify, mostly under pKd 3.1 to 4
Conditions: plain residues with an end cap or a label only (N-terminal biotin on a linker: ttds)
Quantity name: pKd
Answer as a number with no unit attached.

SVWLRKETRV [CYSLTR2, Q9NS75]; 4.15

With those in mind, consider the next binder.
Record STLTIFETAL [ABCC4, O15439] , field pKd: 3.84
